- Type: physicochemical
- assay.setup: SGF with pepsin, pH 1.5, 37° C.; time 4 h; second of two values
test.readout: Condition 1 Conversion (%), second value of pair x/y
Number in %, nothing else.

Observe how each entry below is paired with its result.
> print(dat)
                                   molecule  unit.annotation  observed.measurement
1  COc1ccc([C@@]23CC/C(=N/OC(C)(C)OC)C[C@@H]2N(C)CC3)cc1OC [Compound 219]                %                   100
2  COc1ccc([C@@]23CC/C(=N\OC(C)(C)OC)C[C@@H]2N(C)CC3)cc1OC [Compound 204]                %                   100
3  COc1ccc([C@@]23CCC(=NOCC(=O)OC(C)(C)C)C[C@@H]2N(C)CC3)cc1OC [Compound 202]                %                  6.42

Now for another entry.
## Task If you can, please state the reported Condition 1 Conversion (%), second value of pair x/y value of COc1ccc([C@@]23CCC(=NOC4CCCCO4)C[C@@H]2N(C)CC3)cc1OC (stereo partly shown) [Compound 206] .
## Result 77.75

* * *

- Assay type: physicochemical
- assay.setup: DI water, 25° C., 0.5 mM; time 1 h
Listing of recorded Condition 2 Conversion (%) by entry.
Number in %, nothing else.

Observe how each entry below is paired with its result.
> print(dat)
                                   compound                test.readout  unit.annotation  observed.measurement
1  COc1ccc([C@@]23CCC(=NOC(C)(C)C)C[C@@H]2N(C)CC3)cc1OC [Compound 199]  Condition 2 Conversion (%)                %                     0
2  COc1ccc([C@]23CCN(C)[C@H]2CC2(CC3)OCC(C(=O)O)O2)cc1OC (stereo partly drawn) [Compound 214]  Condition 2 Conversion (%)                %                     0
3  COc1ccc([C@@]23CC/C(=N\NC(=O)CCC(=O)O)C[C@@H]2N(C)CC3)cc1OC [Compound 245]  Condition 2 Conversion (%)                %                   100
4  COc1ccc([C@@]23CCC(=NNc4ccc(C(=O)O)cc4)C[C@@H]2N(C)CC3)cc1OC [Compound 363]  Condition 2 Conversion (%)                %                     0
5  COc1ccc([C@@]23CCC(=NOC4CCCCO4)C[C@@H]2N(C)CC3)cc1OC (stereo partly drawn) [Compound 206]  Condition 2 Conversion (%)                %                     0
6  COc1ccc([C@@]23CCC(OC(=O)c4ccccc4C)=C[C@@H]2N(C)CC3)cc1OC [Compound 298]  Condition 2 Conversion (%)                %                     0

## Task If you can, please state the reported Condition 2 Conversion (%) value of COc1ccc([C@@]23CC/C(=N\NC(=O)Nc4ccc(N5CCN(C)CC5)cc4)C[C@@H]2N(C)CC3)cc1OC [Compound 257] .
## Result 8

## Task Please answer likewise for COc1ccc([C@@]23CCC(=NNc4cnccn4)C[C@@H]2N(C)CC3)cc1OC [Compound 365]
## Result 11.33

## Task Please answer likewise for COc1ccc([C@@]23CCC(=NNC(=O)Nc4cccc(O)c4)C[C@@H]2N(C)CC3)cc1OC [Compound 251]
## Result 0

## Task Please answer likewise for COc1ccc([C@@]23CCC(=NNC(=O)Nc4cccnc4)C[C@@H]2N(C)CC3)cc1OC [Compound 299]
## Result 0

## Task Please answer likewise for COc1ccc([C@@]23CCC(OC(=O)CC(C)C)=C[C@@H]2N(C)CC3)cc1OC [Compound 334]
## Result 0

* * *

- Type: physicochemical
- assay.setup: SGF with pepsin, pH 1.5, 37° C., 0.5 mM; time 4 h
# note: exactly 40% is not below, so it is FALSE; use TRUE for Condition 1 Conversion (%) strictly under it

Please review the entries below; each comes with its answer.
> print(dat)
                                   molecule  class.label
1  COc1ccc([C@@]23CCC(OC(=O)CC(C)C)=C[C@@H]2N(C)CC3)cc1OC         TRUE
2  COc1ccc([C@@]23CCC(=NNC(=O)c4ccc(F)cc4)C[C@@H]2N(C)CC3)cc1OC        FALSE
3  CO/N=C1/CC[C@@]2(c3ccc(OC)c(OC)c3)CCN(C)[C@H]2C1         TRUE
4  CCON=C1CC[C@@]2(c3ccc(OC)c(OC)c3)CCN(C)[C@H]2C1         TRUE
5  COc1ccc([C@@]23CCC(=NOCCO)C[C@@H]2N(C)CC3)cc1OC         TRUE

## Task Quick check: Condition 1 Conversion (%) of C=C(C)C(=O)OC1=C[C@@H]2N(C)CC[C@]2(c2ccc(OC)c(OC)c2)CC1 under 40%?
## Result TRUE

## Task Please answer likewise for COc1ccc([C@@]23CC/C(=N\NC(=O)NC[C@H]4CC[C@H](C(=O)O)CC4)C[C@@H]2N(C)CC3)cc1OC
## Result FALSE

## Task Please answer likewise for COc1ccc([C@@]23CCC(=NNC(=O)Nc4ccc(C(=O)O)cc4)C[C@@H]2N(C)CC3)cc1OC (racemic)
## Result TRUE

* * *

- method.notes: Plasma Stability Assay of Example A3, human plasma
- assay.setup: 240 min; 5 μM, 37° C.; % of prodrug compound remaining
# note: exactly 1% is not below, so it is condition not met; use condition met for Human Plasma Prodrug (%) strictly under it

Please review the entries below; each comes with its answer.
> print(dat)
                           molecular.string        class.label
1  COc1ccc([C@@]23CCC(OC(=O)c4cccc(C)c4C)=C[C@@H]2N(C)CC3)cc1OC  condition not met
2  COc1ccc([C@@]23CCC(OC(=O)c4ccc(C(F)(F)F)cc4)=C[C@@H]2N(C)CC3)cc1OC  condition not met
3  COc1ccc([C@@]23CCC(OC(=O)c4cccc(N(C)C)c4)=C[C@@H]2N(C)CC3)cc1OC  condition not met
4  COc1ccc([C@@]23CCC(OC(=O)c4ccc(C(C)C)cc4)=C[C@@H]2N(C)CC3)cc1OC  condition not met
5  C=C(C)C(=O)OC1=C[C@@H]2N(C)CC[C@]2(c2ccc(OC)c(OC)c2)CC1      condition met

Turning to the following compound.
## Task Quick check: Human Plasma Prodrug (%) of C/C=C(\C)C(=O)OC1=C[C@@H]2N(C)CC[C@]2(c2ccc(OC)c(OC)c2)CC1 under 1%?
## Result condition met

* * *

Listing of recorded Prodrug (%) remaining, Rat Plasma by entry.
- assay.setup: 10 min, 10 μM
Number in %, nothing else.

Observe how each entry below is paired with its result.
> print(dat)
                                   compound                       test.readout  observed.measurement
1  CCCC(CC)CC(=O)OC1=C[C@@H]2N(C)CC[C@]2(c2ccc(OC)c(OC)c2)CC1 (some centres unmarked) [Compound 398]  Prodrug (%) remaining, Rat Plasma                   2.8
2  CCC(CC)C(=O)OC1=C[C@@H]2N(C)CC[C@]2(c2ccc(OC)c(OC)c2)CC1 [Compound 426]  Prodrug (%) remaining, Rat Plasma                  70.2
3  CCCCCCCC(=O)OC1=C[C@@H]2N(C)CC[C@]2(c2ccc(OC)c(OC)c2)CC1 [Compound 395]  Prodrug (%) remaining, Rat Plasma                   0.3
4  COc1ccc([C@@]23CCC(OC(=O)c4cccc(C)c4C)=C[C@@H]2N(C)CC3)cc1OC [Compound 373]  Prodrug (%) remaining, Rat Plasma                  81.0

## Task If you can, please state the reported Prodrug (%) remaining, Rat Plasma value of CCC(C)C(=O)OC1=C[C@@H]2N(C)CC[C@]2(c2ccc(OC)c(OC)c2)CC1 (some centres unmarked) [Compound 425] .
## Result 4.4

## Task Please answer likewise for CCCCCC(C)C(=O)OC1=C[C@@H]2N(C)CC[C@]2(c2ccc(OC)c(OC)c2)CC1 (some centres unmarked) [Compound 400]
## Result 12.6

## Task Please answer likewise for COc1ccc([C@@]23CCC(OC(=O)CCN)=C[C@@H]2N(C)CC3)cc1OC [Compound 397]
## Result 10.5

## Task Please answer likewise for CCCC(CCC)C(=O)OC1=C[C@@H]2N(C)CC[C@]2(c2ccc(OC)c(OC)c2)CC1 [Compound 427]
## Result 93.6
